Data origin, for the record: the Human Domainome abundance scans (Beltran et al. 2025)

B1: Gamma-crystallin C, residues 4 to 79; numbered along this chain, P07315 (parent)
chain: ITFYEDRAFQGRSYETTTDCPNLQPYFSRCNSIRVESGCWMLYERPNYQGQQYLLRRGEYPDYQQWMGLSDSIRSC

# Variants of: B1
# ASSAY EXPLANATION: abundance fitness (aPCA) (normalised: wild type 0, dead -1); higher = more abundant; growth selection in yeast, the domain comes from the species named
# RUN CONDITIONS: Homo sapiens
MEASURED ENDPOINT: abundance fitness
The response must contain the number and no unit.

# query: abundance fitness of entry ITFYEDRAFQGRSYETTTDCPNLQPYFSRCNSIRVESGCWMMYERPNYQGQQYLLRRGEYPDYQQWMGLSDSIRSC
0.045

So what's the measured abundance fitness for this one? ITFYEDRAFQGRSYETTTDCPNLQPYFSRCNSIRVESGCWMLYERPNYQGQQYLLRRGEYPTYQQWMGLSDSIRSC
-0.055

Endpoint output: abundance fitness of ITFYEDRAFQGRSYETTTDCPNLQPYSSRCNSIRVESGCWMLYERPNYQGQQYLLRRGEYPDYQQWMGLSDSIRSC . Value?
-0.109

Name the recorded abundance fitness for ITFYEDRAFQGRSYETTTDCPNLQPYFSRCNSIRVESGCWMLYGRPNYQGQQYLLRRGEYPDYQQWMGLSDSIRSC .
0.02

Fill blank: measured abundance fitness of the variant ITFYEDRAFQGRSYEGTTDCPNLQPYFSRCNSIRVESGCWMLYERPNYQGQQYLLRRGEYPDYQQWMGLSDSIRSC is ____.
-0.089

Find the recorded abundance fitness belonging to ITFYEDRAFQGRSYETTTDCPNLQPYFSRCNSIRVESGCWMLYERPNYQGQQYLLRRGEYPDYQQWMGLSRSIRSC and report it.
-0.011

# get_value(readout='abundance fitness', item= ITFYEDRAFQGRSYETTEDCPNLQPYFSRCNSIRVESGCWMLYERPNYQGQQYLLRRGEYPDYQQWMGLSDSIRSC )
-0.02

Can you look up the measured abundance fitness of ITFYEDRAFQGRSYETTTDCPNLQPYFSRCNSIRVESGCWMLYERPNYQGQQYLLRRGEYPDYQQWMGLSDSIRSQ for me?
-0.592

abundance fitness lookup needed for ITFYEDRAFQGRSYETTTDCPNLQPYFSRCNSIRVESGCWMLYERPNYQGQQYLLRRGEYPDYQQWMGLSDSDRSC , thanks.
-0.861

Consider the variant shown here: ITFYEDRYFQGRSYETTTDCPNLQPYFSRCNSIRVESGCWMLYERPNYQGQQYLLRRGEYPDYQQWMGLSDSIRSC What is its recorded abundance fitness?
-0.101

GET /values?readout=abundance fitness&item= ITFYEDRAFQGRSYETTTDCPNLQPYFSRCNSIRVESGCWMLYERPNYQGQQYLLQRGEYPDYQQWMGLSDSIRSC
-0.003

Would you kindly share the measured abundance fitness for ITFYEDRAFQLRSYETTTDCPNLQPYFSRCNSIRVESGCWMLYERPNYQGQQYLLRRGEYPDYQQWMGLSDSIRSC ?
-0.41

Could you tell me which abundance fitness is on file for ITFYEDRAFQGRSYETTTDCPNLQPYFSRCNSIRVESGCWMLYERPNYQGQQYLLRRGEYPDYQQWMGLSDHIRSC ?
-0.172

Using the record for ITFYEDRAFQGRSYETTTDCPNLQPYFSRCNSIRLESGCWMLYERPNYQGQQYLLRRGEYPDYQQWMGLSDSIRSC , report its abundance fitness.
-0.038

I would be grateful if you could share the reported abundance fitness for ITFYEDRAFQGRSYETTTDCPNLQPYFSRCNSIRVTSGCWMLYERPNYQGQQYLLRRGEYPDYQQWMGLSDSIRSC .
0.11

Name the recorded abundance fitness for ITFYEDRAFQGRSYETTTDCPNLQPYFSRCNSIRVESGCWMLYERPNYQGQQYLLRRGEYSDYQQWMGLSDSIRSC .
0.004

Quick one: abundance fitness for ITFYEDRAFQGRSYETTTDCPNLQPYFSRCNSIRVESECWMLYERPNYQGQQYLLRRGEYPDYQQWMGLSDSIRSC ?
-0.009

I would be grateful if you could share the reported abundance fitness for ITFYEDRAFQGRSYETTTDMPNLQPYFSRCNSIRVESGCWMLYERPNYQGQQYLLRRGEYPDYQQWMGLSDSIRSC .
0.068

Would you mind telling me what abundance fitness value was observed for ITFYEDRAFQGRSYETTTDCPNLQPYFSECNSIRVESGCWMLYERPNYQGQQYLLRRGEYPDYQQWMGLSDSIRSC ?
-0.021

Request the reported abundance fitness associated with ITFPEDRAFQGRSYETTTDCPNLQPYFSRCNSIRVESGCWMLYERPNYQGQQYLLRRGEYPDYQQWMGLSDSIRSC
-1.12

Recorded abundance fitness for ITFYEDRAFQGRSYETTTDCPNLQPYFSRCNSIRVESGCWMLYERPNYQGQQYLLRRGEYPDYQQHMGLSDSIRSC , please?
-0.01

Recorded abundance fitness of ITFYEDRAFQGRSYETTTDCPNLQPYFSRCNSCRVESGCWMLYERPNYQGQQYLLRRGEYPDYQQWMGLSDSIRSC , please.
0.074
